Every entry's value here was drawn from patent US7842469B2.

# assay_procedure: Serum stability in mouse serum at 37° C.
# Format: in vitro ADME
# conditions: mouse serum, 37° C., mono-exponential fit
readout: Serum τ1/2 (h) mouse

1) C124A/K136R: RLuc mutant C124A/K136R (protein) MASKVYDPEQRKRMITGPQWWARCKQMNVLDSFINYYDSEKHAENAVIFLHGNAASSYLWRHVVPHIEPVARCIIPDLIGMGKSGKSGNGSYRLLDHYKYLTAWFELLNLPKKIIFVGHDWGAALAFHYSYEHQDRIKAIVHAESVVDVIESWDEWPDIEEDIALIKSEEGEKMVLENNFFVETMLPSKIMRKLEPEEFAAYLEPFKEKGEVRRPTLSWPREIPLVKGGKPDVVQIVRNYNAYLRASDDLPKMFIESDPGFFSNAIVEGAKKFPNTEFVKVKGLHFSQEDAPDEMGKYIKSFVERVLKNEQ :: 12 h
